# testedSystem: human LPAR1 (Homo sapiens (Human))
# Sequence (Q92633 whole entry): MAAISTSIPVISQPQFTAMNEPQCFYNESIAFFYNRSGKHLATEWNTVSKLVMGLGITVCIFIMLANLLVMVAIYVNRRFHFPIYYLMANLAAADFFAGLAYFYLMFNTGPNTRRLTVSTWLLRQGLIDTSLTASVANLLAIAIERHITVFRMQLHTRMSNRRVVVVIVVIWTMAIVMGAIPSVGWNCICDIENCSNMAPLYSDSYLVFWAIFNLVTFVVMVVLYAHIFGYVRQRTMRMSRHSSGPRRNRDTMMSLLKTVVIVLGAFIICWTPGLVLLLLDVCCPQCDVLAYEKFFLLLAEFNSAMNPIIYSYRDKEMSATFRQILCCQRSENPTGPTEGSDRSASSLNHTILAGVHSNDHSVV
# test: LPAR1 intracellular calcium mobilization assay (antagonist mode, FLIPR)
# Type: cell-based
# statedConditions: CHO-K1 EDG2 cells expressing human LPAR1, LPA 18:2 at EC80 (100 nM), test compound 0.5 nM to 10 μM
metricName: EC50 (nM)

{"columns": ["molecule", "testedSystem", "number"],
 "data": [
  ["C[C@@H](OC(=O)Nc1c(-c2ccc(NC(=O)c3ccc(C(F)(F)F)nc3)cn2)nnn1C)c1cc(F)cnc1F", "human LPAR1 (Homo sapiens (Human))", 63.3],
  ["Cc1cnc(F)cc1C(C)OC(=O)Nc1c(-c2ccc(NC(=O)C3(C#N)CC3)cn2)nnn1C (stereo not drawn)", "human LPAR1 (Homo sapiens (Human))", 1280],
  ["C[C@@H](OC(=O)Nc1c(-c2ccc(NC(=O)C(F)F)cn2)nnn1C)c1cccnc1Cl", "human LPAR1 (Homo sapiens (Human))", 112],
  ["Cc1ncc(F)cc1[C@@H](C)OC(=O)Nc1c(-c2ccc(NC(=O)C34CC(C#N)(C3)C4)cn2)nnn1C", "human LPAR1 (Homo sapiens (Human))", 140],
  ["C[C@@H](OC(=O)Nc1c(-c2ccc(NC(=O)C3(CN)CC(F)(F)C3)cn2)nnn1C)c1cc(F)cnc1F", "human LPAR1 (Homo sapiens (Human))", 66.9],
  ["C[C@@H](OC(=O)Nc1c(-c2ccc(NC(=O)C3CC3)cn2)nnn1C)c1cccnc1Cl", "human LPAR1 (Homo sapiens (Human))", 429],
  ["C[C@@H](OC(=O)Nc1c(-c2ccc(NC(=O)C34CC(F)(C3)C4)cn2)nnn1C)c1cccnc1Cl", "human LPAR1 (Homo sapiens (Human))", 47.8],
  ["C[C@@H](OC(=O)Nc1c(-c2ccc(NC(=O)c3cnc(F)cc3F)cn2)nnn1C)c1cc(F)cnc1F", "human LPAR1 (Homo sapiens (Human))", 346],
  ["COC(=O)Nc1ccc(-c2nnn(C)c2NC(=O)O[C@H](CF)c2cccc(F)c2)nc1", "human LPAR1 (Homo sapiens (Human))", 276],
  ["C[C@@H](OC(=O)Nc1c(-c2ccc(NC(=O)c3ccc(C4(C#N)CC4)nc3)cn2)nnn1C)c1cc(F)cnc1F", "human LPAR1 (Homo sapiens (Human))", 229],
  ["C[C@@H](OC(=O)Nc1c(-c2ccc(NC(=O)c3cncc(F)c3Cl)cn2)nnn1C)c1cc(F)cnc1F", "human LPAR1 (Homo sapiens (Human))", 691],
  ["C[C@@H](OC(=O)Nc1c(-c2ccc(NC(=O)c3cc(F)nc(F)c3)cn2)nnn1C)c1cc(F)cnc1F", "human LPAR1 (Homo sapiens (Human))", 131],
  ["C[C@@H](OC(=O)Nc1c(-c2ccc(NC(=O)[C@@H]3CCC(=O)N3)cn2)nnn1C)c1cccnc1Cl", "human LPAR1 (Homo sapiens (Human))", 3150],
  ["C[C@@H](OC(=O)Nc1c(-c2ccc(NC(=O)C34CC(F)(C3)C4)cn2)nnn1C)c1cc(F)cnc1F", "human LPAR1 (Homo sapiens (Human))", 32.6],
  ["C[C@@H](OC(=O)Nc1c(-c2ccc(NC(=O)c3cnc(C(F)(F)F)nc3)cn2)nnn1C)c1cc(F)cnc1F", "human LPAR1 (Homo sapiens (Human))", 38.5]
]}

* * *

# testedSystem: human LPAR1 (Homo sapiens (Human))
# test: LPAR1 intracellular calcium mobilization assay (antagonist mode, FLIPR)
# Type: cell-based
# statedConditions: CHO-K1 EDG2 cells expressing human LPAR1, LPA 18:2 at EC80 (100 nM), test compound 0.5 nM to 10 μM
metricName: EC50 (nM)

{"columns": ["molecule", "number"],
 "data": [
  ["C[C@@H](OC(=O)Nc1c(-c2ncc(NC(=O)C34CC(C#N)(C3)C4)cc2F)nnn1C)c1cc(F)cnc1F", 163],
  ["C[C@@H](OC(=O)Nc1c(-c2ccc(NC(=O)C3(C#N)CC3)cn2)nnn1C)c1cccnc1Cl", 30.8],
  ["C[C@@H](OC(=O)Nc1c(-c2ccc(NC(=O)[C@@]3(C#N)C[C@@H]3F)cn2)nnn1C)c1cc(F)cnc1F", 168],
  ["C[C@@H](OC(=O)Nc1c(-c2ccc(NC(=O)[C@@H]3C[C@H]3c3ccccn3)cn2)nnn1C)c1cc(F)cnc1F", 19.5],
  ["C[C@@H](OC(=O)Nc1c(-c2ccc(NC(=O)C34CC(C#N)(C3)C4)cn2)nnn1C)c1cccnc1Cl", 76.4],
  ["C[C@@H](OC(=O)Nc1c(-c2ccc(NC(=O)c3ccnc(Cl)c3)cn2)nnn1C)c1cccnc1Cl", 16.6],
  ["Cc1ccc(C(=O)Nc2ccc(-c3nnn(C)c3NC(=O)O[C@H](C)c3cc(F)cnc3F)nc2)cn1", 374],
  ["Cc1nonc1C(=O)Nc1ccc(-c2nnn(C)c2NC(=O)O[C@H](C)c2cc(F)cnc2F)nc1", 62.3],
  ["Cc1cc(C(=O)Nc2ccc(-c3nnn(C)c3NC(=O)O[C@H](C)c3cc(F)cnc3F)nc2)on1", 161],
  ["C[C@@H](OC(=O)Nc1c(-c2ccc(NC(=O)[C@@H]3CC3(F)F)cn2)nnn1C)c1cccnc1Cl", 81.9],
  ["C[C@@H](OC(=O)Nc1c(-c2ccc(NC(=O)C3(C#N)CNC3)cn2)nnn1C)c1cc(F)cnc1F", 354],
  ["C[C@@H](OC(=O)Nc1c(-c2ccc(NC(=O)[C@@H]3C[C@H]3[N+](=O)[O-])cn2)nnn1C)c1cc(F)cnc1F (mixture of isomers)", 37.4],
  ["C[C@@H](OC(=O)Nc1c(-c2ccc(NC(=O)c3ccc(C(C)(F)F)nc3)cn2)nnn1C)c1cc(F)cnc1F", 162],
  ["C[C@@H](OC(=O)Nc1c(-c2ccc(NC(=O)[C@H]3C[C@@H]3C)cn2)nnn1C)c1cc(F)cnc1F (mixture of isomers)", 41.2]
]}

* * *

Listed below: EC50 values for each entry.
# testedSystem: human LPAR1 (Homo sapiens (Human))
# test: LPAR1 intracellular calcium mobilization assay (antagonist mode, FLIPR)
# Assay type: cell-based
# statedConditions: CHO-K1 EDG2 cells expressing human LPAR1, LPA 18:2 at EC80 (100 nM), test compound 0.5 nM to 10 μM
metricName: EC50 (nM)

{"columns": ["chemSmiles", "unitText", "number"],
 "data": [
  ["C[C@@H](OC(=O)Nc1c(-c2ccc(NC(=O)c3ccc(Cl)nc3)cn2)nnn1C)c1cc(F)cnc1F", "nM", 56.4],
  ["C[C@@H](OC(=O)Nc1c(-c2ccc(NC(=O)[C@H]3C[C@]4(CC4(F)F)C3)cn2)nnn1C)c1cccnc1Cl", "nM", 16.6],
  ["C[C@@H](OC(=O)Nc1c(-c2ccc(NC(=O)c3cn[nH]c3)cn2)nnn1C)c1cccnc1Cl", "nM", 775],
  ["CC(=O)Nc1cnc(-c2nnn(C)c2NC(=O)O[C@H](C)c2cccnc2Cl)c(F)c1", "nM", 2700]
]}

* * *

# testedSystem: human LPAR1 (Homo sapiens (Human))
# test: LPAR1 intracellular calcium mobilization assay (antagonist mode, FLIPR)
# Type: cell-based
# statedConditions: CHO-K1 EDG2 cells expressing human LPAR1, LPA 18:2 at EC80 (100 nM), test compound 0.5 nM to 10 μM
metricName: log10 EC50 (log10 of the value in nM)

{"columns": ["chemSmiles", "metricName", "number"],
 "data": [
  ["CC(=O)Nc1ccc(-c2nnn(C)c2NC(=O)O[C@H](C)c2cccnc2Cl)nc1", "log10 EC50", 3.04],
  ["C[C@@H](OC(=O)Nc1c(-c2ccc(NC(=O)c3ccnc(S(C)(=O)=O)c3)cn2)nnn1C)c1cc(F)cnc1F", "log10 EC50", 2.39],
  ["C[C@@H](OC(=O)Nc1c(-c2ncc(NC(=O)C3(C#N)CC3)cn2)nnn1C)c1cc(F)cnc1Cl", "log10 EC50", 2.87],
  ["C[C@@H](OC(=O)Nc1c(-c2ccc(NC(=O)c3ccc4ncn(C)c4c3)cn2)nnn1C)c1cc(F)cnc1F", "log10 EC50", 2.61],
  ["CNC(=O)Nc1ccc(-c2nnn(C)c2NC(=O)O[C@H](CF)c2cccc(F)c2)nc1", "log10 EC50", 3.09],
  ["Cc1nc(-c2nnn(C)c2NC(=O)O[C@H](C)c2cc(F)cnc2F)ccc1NC(=O)C1(C#N)CC1", "log10 EC50", 1.71],
  ["C[C@@H](OC(=O)Nc1c(-c2ccc(NC(=O)C34CC(CO3)C4)cn2)nnn1C)c1cccnc1Cl", "log10 EC50", 3.20]
]}

* * *

# testedSystem: human LPAR1 (Homo sapiens (Human))
# test: LPAR1 intracellular calcium mobilization assay (antagonist mode, FLIPR)
# Format: cell-based
# statedConditions: CHO-K1 EDG2 cells expressing human LPAR1, LPA 18:2 at EC80 (100 nM), test compound 0.5 nM to 10 μM
Listed below: log10(EC50) values for each entry.
metricName: log10(EC50) (log10 of the value in nM)

{"columns": ["compound", "log10(EC50)"],
 "data": [
  ["C[C@@H](OC(=O)Nc1c(-c2ccc(NC(=O)C(C)(C)C#N)cn2)nnn1C)c1cccnc1Cl", 2.69],
  ["CC(=O)Nc1cnc(-c2nnn(C)c2NC(=O)O[C@H](C)c2cccnc2Cl)cc1F", 3.01],
  ["C[C@@H](OC(=O)Nc1c(-c2ccc(NC(=O)C3CC3(C)C)cn2)nnn1C)c1cccnc1Cl (stereo partly shown)", 2.55],
  ["C[C@@H](OC(=O)Nc1c(-c2ccc(NC(=O)[C@@H]3C[C@H]3c3ccncc3Cl)cn2)nnn1C)c1cc(F)cnc1F (mixture of isomers)", 1.72],
  ["C[C@@H](OC(=O)Nc1c(-c2ccc(NC(=O)[C@@H]3C[C@H]3c3ccccc3)cn2)nnn1C)c1cccnc1Cl", 0.72],
  ["C[C@@H](OC(=O)Nc1c(-c2ccc(NC(=O)c3cnc(N(C)C)nc3)cn2)nnn1C)c1cc(F)cnc1F", 3.08],
  ["CCC1(C(=O)Nc2ccc(-c3nnn(C)c3NC(=O)O[C@H](C)c3cccnc3Cl)nc2)COC1", 3.37]
]}

# credit: patent US11912686B2
